Target: N-terminal HiBiT tagged BCL6 (Homo sapiens, UniProt P41182)
Construct: expressed in transfected cells; host or cells: HT1080 (ATCC CCL-121), stably transduced with lentivirus pLV-UBC-N-HiBiT-BCL6-PGK-puro
Assay: HiBiT based degradation assay
Format: cell-based
Conditions: HT1080 cells expressing N-terminal HiBiT tagged BCL6; 5 hours of incubation; four-parameter logistic model; read-out: EC50 (5 hr)
Task for the reader: assign each of the following compounds its reported DC50.

{"columns": ["compound", "DC50"],
 "data": [
  ["CNC(=O)COc1cc2cc(Nc3nc(N4CCC(CN5C6CCC5CC(c5cccc7c(C8CCC(=O)NC8=O)nn(C)c57)C6)CC4)ncc3Cl)cnc2n(C)c1=O (centres unmarked) [Compound 143]", "< 10 nM"],
  ["CNC(=O)COc1cc2cc(Nc3nc(N4CC[C@@H](CN5CCN(c6cccc7c(C8CCC(=O)NC8=O)nn(C)c67)CC5)[C@H](C)C4)ncc3Cl)cnc2n(C(C)C)c1=O (some centres unmarked) [Compound 177c]", "100 to 1000 nM"],
  ["CNC(=O)COc1cc2cc(Nc3nc(N4CCC5(CCC(Nc6ccc7c(C8CCC(=O)NC8=O)nn(C)c7c6)CC5)CC4)ncc3Cl)cnc2n(C(C)C)c1=O (centres unmarked) [Compound 199]", "< 10 nM"],
  ["CNC(=O)COc1cc2cc(Nc3nc(N4CCN(CC5CCN(c6cccc7c(C8CCC(=O)NC8=O)nn(C)c67)CC5)[C@@H](C)C4)ncc3Cl)cnc2n(C(C)C)c1=O (some centres unmarked) [Compound 105a]", "10 to 100 nM"]
]}

Now consider a different compound.
Documented DC50 of CNC(=O)COc1cc2cc(Nc3nc(N4CCN(C(=O)N5CCN(c6cccc7c(C8CCC(=O)NC8=O)nn(C)c67)CC5)CC4)ncc3Cl)cnc2n(C(C)C)c1=O (centres unmarked) [Compound 223] : < 10 nM
